# system: Recombinant human MMP-2 (Homo sapiens)
# Construct: made in house
# Sequence (P08253 110-660): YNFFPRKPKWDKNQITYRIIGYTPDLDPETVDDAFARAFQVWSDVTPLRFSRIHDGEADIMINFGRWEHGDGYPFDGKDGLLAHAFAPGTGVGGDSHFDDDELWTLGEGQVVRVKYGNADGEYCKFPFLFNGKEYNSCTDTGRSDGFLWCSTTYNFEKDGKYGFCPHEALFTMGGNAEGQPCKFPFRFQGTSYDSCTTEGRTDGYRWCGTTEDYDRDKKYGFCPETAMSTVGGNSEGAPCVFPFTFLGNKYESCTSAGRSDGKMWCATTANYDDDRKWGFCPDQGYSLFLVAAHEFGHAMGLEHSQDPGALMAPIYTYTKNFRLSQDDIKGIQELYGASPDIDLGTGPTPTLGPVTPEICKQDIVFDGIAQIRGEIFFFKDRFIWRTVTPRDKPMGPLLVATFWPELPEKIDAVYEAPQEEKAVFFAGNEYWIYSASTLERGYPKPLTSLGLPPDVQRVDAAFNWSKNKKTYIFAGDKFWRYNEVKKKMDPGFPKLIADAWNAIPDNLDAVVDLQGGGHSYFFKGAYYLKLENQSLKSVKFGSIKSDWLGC
# test method notes: In vitro MMP inhibition, fluorogenic peptide substrate
# Assay type: biochemical
# measurement setup: Table B
pIC50: −log10 of the molar value.
parameter: pIC50

Query: Would you mind telling me what pIC50 value was observed for COc1ccc(S(=O)(=O)N2CCN(c3ccc(OC(F)(F)F)cc3)CC2)c(C(=O)NO)c1OC [Example 26] ?
Response: 9.40

Query: What would you report for COc1ccc(-c2ccc(OC3CCN(S(=O)(=O)c4ccc(OC)c(OC)c4C(=O)NO)CC3)cc2)cc1OC [Example 27] ?
Response: 8.48

[I] CCCCOc1ccc(N2CCN(S(=O)(=O)c3ccc(OC)c(OC)c3C(=O)NO)CC2)cc1F [Example 25]
[II] O=C(NO)c1ccccc1S(=O)(=O)N1CCN(C(=O)c2ccccc2)CC1 [Example 53]
Query: Form field 'greater pIC50' accepts I or II ; which applies? State the label of the item chosen.
Response: I

* * *

# system: Recombinant human MMP-9 (Homo sapiens)
# Sequence (P14780 107-707 limits assumed): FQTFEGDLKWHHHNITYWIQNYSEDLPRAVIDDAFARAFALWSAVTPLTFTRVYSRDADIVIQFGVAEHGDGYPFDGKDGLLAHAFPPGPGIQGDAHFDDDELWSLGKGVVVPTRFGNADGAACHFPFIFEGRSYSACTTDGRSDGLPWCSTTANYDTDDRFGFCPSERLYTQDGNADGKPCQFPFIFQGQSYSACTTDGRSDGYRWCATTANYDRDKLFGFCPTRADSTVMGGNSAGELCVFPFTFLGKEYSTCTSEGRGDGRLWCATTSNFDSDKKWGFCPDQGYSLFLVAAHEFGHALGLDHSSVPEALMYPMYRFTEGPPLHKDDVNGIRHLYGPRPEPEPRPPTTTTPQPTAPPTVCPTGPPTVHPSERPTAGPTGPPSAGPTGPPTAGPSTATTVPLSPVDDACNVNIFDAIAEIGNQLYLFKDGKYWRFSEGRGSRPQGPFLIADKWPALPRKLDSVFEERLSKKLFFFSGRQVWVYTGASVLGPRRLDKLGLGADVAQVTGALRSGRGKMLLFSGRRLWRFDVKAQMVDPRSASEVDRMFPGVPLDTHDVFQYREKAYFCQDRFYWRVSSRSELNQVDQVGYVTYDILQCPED
# test method notes: In vitro MMP inhibition, fluorogenic peptide substrate
# measurement setup: Table B
pIC50: −log10 of the molar value.
parameter: pIC50

[A] COc1ccc(-c2ccc(OC3CCN(S(=O)(=O)c4ccc(OC)c(OC)c4C(=O)NO)CC3)cc2)cc1OC
[B] COc1ccc(S(=O)(=O)N2CCN(c3ccc(OC(F)(F)F)cc3)CC2)c(C(=O)NO)c1OC
[C] CCCCOc1ccc(N2CCN(S(=O)(=O)c3ccc(OC)c(OC)c3C(=O)NO)CC2)cc1F
Query: Parameters: sort_by = pIC50; order = desc; input = items above. Return the labels ranked in the requested order, please.
Response: C, B, A

* * *

Entries annotated with measured IC50
# system: Recombinant human MMP-1 (Homo sapiens)
# Construct: made in house; host or cells: transfected HT-1080 cells
# Sequence (P03956 100-469): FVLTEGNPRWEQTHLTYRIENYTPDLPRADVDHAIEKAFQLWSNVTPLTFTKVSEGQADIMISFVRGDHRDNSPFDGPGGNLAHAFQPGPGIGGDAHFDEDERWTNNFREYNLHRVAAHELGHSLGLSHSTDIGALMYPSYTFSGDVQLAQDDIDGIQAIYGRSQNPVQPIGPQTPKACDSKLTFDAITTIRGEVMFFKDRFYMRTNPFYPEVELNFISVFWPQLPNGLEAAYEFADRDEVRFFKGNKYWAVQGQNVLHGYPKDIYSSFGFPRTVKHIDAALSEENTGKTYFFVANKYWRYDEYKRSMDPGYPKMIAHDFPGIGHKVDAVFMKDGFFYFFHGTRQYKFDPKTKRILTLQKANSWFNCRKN
# test method notes: In vitro MMP inhibition, fluorogenic peptide substrate
# Assay type: biochemical
# measurement setup: Inhibition Table A

Solved cases (5 shown):
Query: Query IC50 on Recombinant human MMP-1 (Homo sapiens) for COc1ccc(S(=O)(=O)N2CCC(Oc3ccc(C(F)(F)F)cc3)CC2)c(C(=O)NO)c1OC [Example 16]
Response: > 10 µM

Query: What would you report for O=C(NO)c1ccccc1S(=O)(=O)N1CCC(Cc2ccccc2)CC1 [Example 3] ?
Response: > 10 µM

Query: What would you report for O=C(NO)c1ccccc1S(=O)(=O)Nc1ccc(Oc2ccccc2)cc1 [Example 15] ?
Response: > 10 µM

Query: What would you report for O=C(NO)c1ccccc1S(=O)(=O)N1CCC(OCc2ccc(C(F)(F)F)cc2)CC1 [Example 14] ?
Response: > 10 µM

Query: What would you report for O=C(NO)c1ccccc1S(=O)(=O)N1CCC(Oc2ccc(OC(F)(F)F)cc2)CC1 [Example 12] ?
Response: > 10 µM

Others:
Query: Query IC50 on Recombinant human MMP-1 (Homo sapiens) for O=C(NO)c1ccccc1S(=O)(=O)N1CCC(c2ccccc2)CC1 [Example 9]
Response: > 10 µM

Query: What would you report for O=C(NO)c1ccccc1S(=O)(=O)NCc1ccccc1 [Example 8] ?
Response: > 10 µM

Query: What would you report for O=C(NO)c1c(F)cccc1S(=O)(=O)N1CCC(Oc2ccc(C(F)(F)F)cc2)CC1 [Example 19] ?
Response: > 10 µM

Query: What would you report for O=C(NO)c1ccccc1NS(=O)(=O)c1ccc(Oc2ccccc2)cc1 [Example 5] ?
Response: > 10 µM
